Every entry's value here was drawn from patent US20240059703A1.

- ASSAY_TARGET: KRAS G12C (Homo sapiens (Human), UniProt P01116, C118A/G12C)
- Sequence (P01116 other isoform, or with tags, fused parts or gaps G12C/C118A): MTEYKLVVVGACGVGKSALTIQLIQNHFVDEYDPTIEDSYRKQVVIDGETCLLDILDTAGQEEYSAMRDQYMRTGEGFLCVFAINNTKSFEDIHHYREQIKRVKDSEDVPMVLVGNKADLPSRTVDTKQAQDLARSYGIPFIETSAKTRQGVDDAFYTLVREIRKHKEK
- TEST_DESCRIPTION: 2 h coupled exchange assay
- Type: biochemical
- DETAILS: Avg 2 h Coupled exchange IC50, 2 h compound pre-incubation
- Description: The term “2 h coupled exchange assay” or “20 h coupled exchange assay” as used herein refers to the assay described in the Section entitled “BIOLOGICAL EVALUATION.”
READOUT_NAME: IC50 (nM)

Would you please look over these solved cases?
{"columns": ["COMPOUND", "UNIT_TAG", "RESULT_VALUE"],
 "data": [
  ["C=CC(=O)N1CC2(CCN(c3nc4c(c(-c5ccc(F)cc5F)c3C#N)CCN(c3ccc(OC)cc3)C4)C2)C1", "nM", 94],
  ["C=CC(=O)N1CC2(CCN(c3nc4c(c(-c5c(C)c(C)cc6cnn(C)c56)c3C)COC(C)(C)C4)C2)C1 (single isomer, unassigned) [Example 14-42]", "nM", 7810],
  ["C=CC(=O)N1CC2(CCN(c3nc4c(c(-c5c(C)ccc6cn[nH]c56)c3C#N)COC(C)(C)C4)C2)C1 (single isomer, unassigned) [Example 14-82]", "nM", 5760],
  ["C=CC(=O)N1CC2(CCN(c3nc4cc(-c5ccn[nH]5)ccc4c(-c4ccccc4Cl)c3C#N)C2)C1", "nM", 571]
]}

[A] C=CC(=O)N1CC2(CCN(c3nc4cc(-c5scnc5C)ccc4c(-c4ccccc4Cl)c3C#N)C2)C1 [Example 20-1]
[B] C=CC(=O)N1CC2(CCN(c3nc4c(c(-c5ncccc5F)c3C#N)CC[C@H](c3scnc3C)C4)C2)C1
Query: Please let me know which one, A or B , has a lower measured IC50 value. Answer by quoting the chosen item's label.
Response: B
